B1: Pistol ribozyme (parent)
chain: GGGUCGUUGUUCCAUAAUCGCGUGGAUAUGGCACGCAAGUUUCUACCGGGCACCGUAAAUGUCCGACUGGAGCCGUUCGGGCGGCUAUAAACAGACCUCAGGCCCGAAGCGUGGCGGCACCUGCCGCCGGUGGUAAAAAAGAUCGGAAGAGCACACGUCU

# Variants of: B1
# protocol-notes: aptazyme ON/OFF ratio, guanine; higher = stronger switching; co-transcriptional cleavage with and without guanine
As shown below, each of these variants has a reported aptazyme ON/OFF ratio value.

| variant-code | aptazyme ON/OFF ratio |
| --- | --- |
| U7A U8G U10G U11A C13U | 1.3 |
| U7A U8C U10G U11C C12G C13U | 1.57 |
| U8G G9U U10G U11A C13U | 1.03 |
| U7C U11C C12U C13A | 1.39 |
| U7C U8G U10G C13G | 1.29 |
| U7A U8G U10G U11C C13A | 1.11 |
| U7G U11C C12G C13U | 1.14 |
| U7A U8C U10C C13U | 2.97 |
| U7G U8G G9U U10C U11A C12U | 1.28 |
| U7G U8G G9C U11C C13A | 1.4 |
| U7A U8A U10A U11G C13U | 1.26 |
| U7A U8C U10A U11C C12G C13A | 1.08 |
| U7G U8G U10G U11C C12G | 1.29 |
| U10A U11C C12G | 1.15 |
| U7A U8C G9C U10A U11G C12A C13A | 1.11 |
| U7G U10G U11C C13A | 1.11 |
| U7C G9U U10C U11A C12A C13G | 1.04 |
| U7A U8A G9C U10G U11A C12U | 1.03 |
| U7C U8A G9U U10C U11C C12A | 1.06 |
| U8A U10G U11G C12A | 1.11 |
| U7G U8A G9C C12A C13U | 0.986 |
| U7A G9A U10G U11C C12G C13U | 1.1 |

These entries and their values trace back to the RNAGym collection of RNA variant scans (doi:10.1021/acssynbio.7b00057).
